Tested on: M14
Test: NCI tumour cell line growth inhibition, 48 h
Activity calls are given as the source filed them. Rule as the data show it: active = GI50 up to about 1.1 µM and inactive = higher.
// allowed return values: true for active, false for inactive

Hi, sorry to bother you, what did the test record for COC(=O)[C@]1(c2cc3ccccc3n2S(=O)(=O)c2ccccc2)CC2CN(C(=O)OCc3ccccc3)C1C1OC(C)(C)OC21 (stereo not given in full) ?
false

Record request — test call for Cc1c(O)c(O)cc[n+]1C1OC(CO)C(O)C1O (stereo not given)
false

====

System: SK-MEL-5
Experiment: NCI tumour cell line growth inhibition, 48 h
Active and inactive are the calls of the source. No stated cut-off is given here; in the data, active = GI50 up to about 1.1 µM and inactive = higher.
Reported GI50 values follow for various molecules

1) CCN1CCC(O)(/C=C/c2ccccc2C)C(C(=O)/C=C/c2ccccc2C)C1 (stereo not given)    1.56 µM (inactive)
2) Clc1ccc(/C=c2\nc(-c3ccccc3)n3c2nc2ccccc23)cc1    > 100 µM (inactive)
3) CSC(=N)NNC(=O)CCC(=O)Nc1ccccc1C(F)(F)F    > 100 µM (inactive)
4) CC1=CC(=O)/C(=C/Nc2nc(-c3cccc([N+](=O)[O-])c3)cs2)C(=O)O1    54.2 µM (inactive)

Kindly consider the entry below.
In plain terms, `Cc1cn2c(/C=N/NC(=N)N)c(-c3cccc([N+](=O)[O-])c3)nc2s1` has a documented GI50 of 1.63 µM (inactive)

Hello, the source for this data is ChEMBL document CHEMBL1201862, in case you need it.
